In this section, each of the binders is paired with its reported kon.
Molecular target: T1, Human BCMA (human, UniProt Q02223 1-54, limits assumed)
T1 construct: also called huBCMA; B-cell maturation antigen
T1 sequence (looked up): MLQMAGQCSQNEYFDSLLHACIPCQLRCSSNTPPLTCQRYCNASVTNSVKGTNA
Test: SPR, IgG immobilised, human BCMA analyte
Give the number; M⁻¹ s⁻¹ is assumed, so skip it.

Some solved entries appear below for comparison.
[[record]]
binder = "COMBO_Rd4_0.6nM_C23 (antibody, V domains shown, IgG) VH: EVQLLESGGGLVQPGGSLRLSCAASGFTFSSYPMSWVRQAPGKGLEWVSALFGSGGSTYYADSVKGRFTISRDNSKNTLYLQMNSLRAEDTAVYYCARYWPMDSWGQGTLVTVSS VL: EIVLTQSPGTLSLSPGERATLSCRPRQSVSSSYLAWYQQKPGQAPRLLMYDASIRATGIPDRFSGSGSGTDFTLTISRLEPEDFAVYYCQQYQDWPLTFGQGTKVEIK"
result_value = "7.39e+06"

[[record]]
binder = "A02_Rd4_0.6nM_C09 (antibody, V domains shown, IgG) VH: EVQLLESGGGLVQPGGSLRLSCAASGFTFSSYAMNWVRQAPGKGLEWVSAISDSGGSMWYADSVKGRFTISRDNSKNTLYLQMNSLRAEDTAVYYCARYWPMSLWGQGTLVTVSS VL: EIVLTQSPGTLSLSPGERATLSCRASQSVSSSYLAWYQQKPGQAPRLLMYDASIRATGIPDRFSGSGSGTDFTLTISRLEPEDFAVYYCQQYQSWPLTFGQGTKVEIK"
result_value = "5.5e+06"

[[record]]
binder = "COMBO_Rd4_0.6nM_C11 (antibody, V domains shown, IgG) VH: EVQLLESGGGLVQPGGSLRLSCAASGFTFSSYPMSWVRQAPGKGLEWVSAALGSGGSTYYADSVKGRFTISRDNSKNTLYLQMNSLRAEDTAVYYCARYWPMSLWGQGTLVTVSS VL: EIVLTQSPGTLSLSPGERATLSCRASQSVSVRYLAWYQQKPGQAPRLLMYDASIRATGIPDRFSGSGSGTDFTLTISRLEPEDFAVYYCQQYGSWPITFGQGTKVEIK"
result_value = "5.11e+06"

[[record]]
binder = "A02_Rd4_6nM_C07 (antibody, V domains shown, IgG) VH: EVQLLESGGGLVQPGGSLRLSCAASGFTFSSYAMNWVRQAPGKGLEWVSAIGGSGGSLPYADSVKGRFTISRDNSKNTLYLQMNSLRAEDTAVYYCARYWPMDSWGQGTLVTVSS VL: EIVLTQSPGTLSLSPGERATLSCRASQSVSPYYLAWYQQKPGQAPRLLMYDASIRATGIPDRFSGSGSGTDFTLTISRLEPEDFAVYYCQQYERWPLTFGQGTKVEIK"
result_value = "1.48e+06"


API: the following record is the query input.
Given the entry C01_Rd4_0.6nM_C27 (antibody, V domains shown, IgG) VH: EVQLLESGGGLVQPGGSLRLSCAASGFTFSSYPMSWVRQAPGKGLEWVSAIGGSGGSLPYADSVKGRFTISRDNSKNTLYLQMNSLRAEDTAVYYCARYWPMDSWGQGTLVTVSS VL: EIVLTQSPGTLSLSPGERATLSCRASQSVSSTYLAWYQQKPGQAPRLLIYDASSRAPGIPDRFSGSGSGTDFTLTISRLEPEDFAVYYCQQYSRWPLTFGQGTKVEIK , report its measured kon.
1.23e+07

Ref: patent US20160297884A1
